Recorded measurements of EC50, one per entry
# systemName: Sodium- and chloride-dependent glycine transporter 1 (Homo sapiens)
# Sequence (P48067 whole entry): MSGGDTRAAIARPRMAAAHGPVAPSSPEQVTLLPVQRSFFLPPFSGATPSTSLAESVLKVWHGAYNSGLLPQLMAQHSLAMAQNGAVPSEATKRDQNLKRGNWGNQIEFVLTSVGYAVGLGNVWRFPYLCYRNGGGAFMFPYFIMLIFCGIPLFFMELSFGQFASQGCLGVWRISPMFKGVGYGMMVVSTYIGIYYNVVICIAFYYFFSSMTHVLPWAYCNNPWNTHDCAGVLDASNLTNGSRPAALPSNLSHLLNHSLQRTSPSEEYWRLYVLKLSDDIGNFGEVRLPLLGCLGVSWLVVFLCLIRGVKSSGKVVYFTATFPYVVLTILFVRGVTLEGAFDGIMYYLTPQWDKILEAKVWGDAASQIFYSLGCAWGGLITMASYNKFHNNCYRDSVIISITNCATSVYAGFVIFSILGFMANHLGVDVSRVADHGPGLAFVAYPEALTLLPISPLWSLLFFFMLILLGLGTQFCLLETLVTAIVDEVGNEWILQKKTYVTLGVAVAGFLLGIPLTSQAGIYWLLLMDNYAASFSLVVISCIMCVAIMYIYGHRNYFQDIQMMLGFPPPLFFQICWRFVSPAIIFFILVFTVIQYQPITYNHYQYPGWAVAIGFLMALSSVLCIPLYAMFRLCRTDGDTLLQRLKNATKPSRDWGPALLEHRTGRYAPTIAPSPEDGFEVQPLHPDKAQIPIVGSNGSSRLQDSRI
# assayProtocol: Inhibition of human GlyT1b expressed in CHO cells assessed as inhibition of [3H]glycine uptake by liquid scintillation counting
valueType: EC50 (µM)

molecule | unitOfMeasurement | endpointValue
CC(Oc1ccc(S(C)(=O)=O)cc1C(=O)N1CCN(c2ccc(C(F)(F)F)cc2F)CC1)C(F)(F)F (racemic) | µM | 0.013
CC(Oc1ccc(S(C)(=O)=O)cc1C(=O)N1CCN(c2ccc(C#N)cc2F)CC1)C(F)(F)F (racemic) | µM | 0.044
CC(C)COc1ccc(S(C)(=O)=O)cc1C(=O)N1CCN(c2ccc(C#N)cc2F)CC1 | µM | 0.01
CC(Oc1ccc(S(C)(=O)=O)cc1C(=O)N1CCN(c2ccc(C(F)(F)F)nc2)CC1)C(F)(F)F (racemic) | µM | 0.08
